# System: Bovine Phosphodiesterase
# method: Phosphodiesterase inhibiting activity (cAMP substrate, remaining cAMP measured by HPLC)
# Type: biochemical
# measurement context: Concentration 0.39 µg/ml
measured attribute: Inhibiting Activity (%)
Only the number, expressed in %, is required.

Prompt: Return Inhibiting Activity (%) (reported value) for this compound: O=c1c(-c2ccc(O)c(-c3cc(-c4coc5cc(O)cc(O)c5c4=O)ccc3O)c2)coc2cc(O)cc(O)c12 [NA23063C]
Response: 26.4

Prompt: Specify reported Inhibiting Activity (%) for the compound shown: O=c1c(-c2ccc(O)c(-c3cc(-c4coc5cc(O)cc(O)c5c4=O)ccc3O)c2)coc2cc(O)ccc12 [NA23063D]
Response: 18.9

Prompt: Identify Inhibiting Activity (%) associated with the compound O=c1c(-c2ccc(Oc3cc(-c4coc5cc(O)cc(O)c5c4=O)ccc3O)cc2)coc2cc(O)ccc12
Response: 17.5

Prompt: Report Inhibiting Activity (%), nothing else, for this compound: O=c1c(-c2ccc(O)c(Oc3ccc(-c4coc5cc(O)cc(O)c5c4=O)cc3)c2)coc2cc(O)ccc12
Response: 17.5
